- experimental target: human ANO6 (Homo sapiens)
- Construct: expressed in transfected cells
- Sequence (Q4KMQ2 1-931 isoform Q4KMQ2-2): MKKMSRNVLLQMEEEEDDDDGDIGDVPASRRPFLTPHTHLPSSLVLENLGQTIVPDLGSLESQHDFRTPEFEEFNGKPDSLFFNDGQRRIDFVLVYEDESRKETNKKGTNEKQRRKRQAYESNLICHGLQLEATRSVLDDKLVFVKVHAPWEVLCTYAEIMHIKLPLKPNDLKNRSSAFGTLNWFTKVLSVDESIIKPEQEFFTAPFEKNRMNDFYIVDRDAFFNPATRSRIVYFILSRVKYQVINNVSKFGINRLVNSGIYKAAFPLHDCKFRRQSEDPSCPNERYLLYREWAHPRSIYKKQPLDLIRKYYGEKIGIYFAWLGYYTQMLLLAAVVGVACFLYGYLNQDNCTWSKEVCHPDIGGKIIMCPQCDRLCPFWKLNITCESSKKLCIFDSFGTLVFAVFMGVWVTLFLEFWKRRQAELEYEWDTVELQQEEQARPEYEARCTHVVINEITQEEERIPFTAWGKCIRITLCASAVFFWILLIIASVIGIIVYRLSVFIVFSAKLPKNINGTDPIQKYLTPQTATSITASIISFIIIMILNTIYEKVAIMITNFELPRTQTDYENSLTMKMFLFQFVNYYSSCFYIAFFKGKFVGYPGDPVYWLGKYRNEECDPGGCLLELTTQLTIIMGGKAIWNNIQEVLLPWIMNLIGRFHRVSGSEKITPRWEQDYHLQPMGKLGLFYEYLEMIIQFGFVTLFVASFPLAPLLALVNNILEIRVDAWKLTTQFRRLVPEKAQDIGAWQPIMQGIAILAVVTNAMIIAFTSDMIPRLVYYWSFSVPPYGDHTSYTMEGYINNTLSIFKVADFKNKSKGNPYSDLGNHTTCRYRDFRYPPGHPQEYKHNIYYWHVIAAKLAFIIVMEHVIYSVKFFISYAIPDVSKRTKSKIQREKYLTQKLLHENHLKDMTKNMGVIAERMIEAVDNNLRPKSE
- assay info: YFP quenching assay (ANO6 ion channel activity)
- Format: cell-based
- protocol conditions: test compound 1 μM, 10 μM ionomycin, read-out: Inhibition Level 1 μM
- Procedure: Example 3: YFP Quenching Assay 1. Materials and Instruments Ionomycin (Alomonelab cat. #I-700), FLUOstar Omega microplate reader (BMG Labtech, Ortenberg, Germany), and MARS Data Analysis Software (BMG Labtech) […] (1) YFP fluorescence signals were recorded in every 0.4 seconds. (2) Basal YFP fluorescence signals were recorded for 1 second. (3) 140 mM SCN-(50 μL) containing 10 μM ionomycin was injected to each well, and YFP fluorescence signals were recorded. […]
observed property: inhibition at 1 µM

COc1cccc(CNC(=O)c2cccc(Nc3ccc(-c4ccccc4)nn3)c2)c1 [Compound A76] tested on human ANO6 (Homo sapiens) gave inhibition at 1 µM: ≥ 60%

O=C(NCC1CCC1)c1cccc(Nc2ccc(-c3ccccc3)nn2)c1 [Compound 30] tested on human ANO6 (Homo sapiens) gave inhibition at 1 µM: ≥ 60%

O=C(NCCc1ccccc1)c1cccc(Nc2ncc(-c3cccc(F)c3)cn2)c1 [Compound A88] tested on human ANO6 (Homo sapiens) gave inhibition at 1 µM: 30 to 60%

CSc1ccc(CNC(=O)c2cccc(Nc3ccc(-c4ccccc4)nn3)c2)cc1 [Compound A44] tested on human ANO6 (Homo sapiens) gave inhibition at 1 µM: 30 to 60%

O=C(NCc1ccc(Cl)cc1)c1cccc(Nc2ccc(-c3ccccc3)nn2)c1 [Compound A49] tested on human ANO6 (Homo sapiens) gave inhibition at 1 µM: 30 to 60%

O=C(NC1CCCC1)c1cccc(Nc2ccc(-c3ccccc3)nn2)c1 [Compound A63] tested on human ANO6 (Homo sapiens) gave inhibition at 1 µM: ≥ 60%

Cc1ccc(CNC(=O)c2cccc(Nc3ccc(C4CCNCC4)nn3)c2)o1 [Compound 71] tested on human ANO6 (Homo sapiens) gave inhibition at 1 µM: < 30%

Cc1ccc(CNC(=O)c2cccc(Nc3ccc(CCc4ccccc4)nn3)c2)o1 [Compound 76] tested on human ANO6 (Homo sapiens) gave inhibition at 1 µM: < 30%

Cc1ccc(Nc2cccc(C(=O)NCc3ccc(C)o3)c2)nn1 [Compound 47] tested on human ANO6 (Homo sapiens) gave inhibition at 1 µM: < 30%

O=C(NC1CCCc2ccccc21)c1cccc(Nc2ncc(-c3cccc(F)c3)cn2)c1 (stereo not drawn) [Compound A82] tested on human ANO6 (Homo sapiens) gave inhibition at 1 µM: 30 to 60%

O=C(NCCc1ccccc1)c1cccc(Nc2ccc(-c3ccccc3)nn2)c1 [Compound A74] tested on human ANO6 (Homo sapiens) gave inhibition at 1 µM: ≥ 60%

Cc1ccc(CNC(=O)c2cccc(Nc3ccc(-c4cccc(F)c4)nn3)c2)cc1 [Compound A25] tested on human ANO6 (Homo sapiens) gave inhibition at 1 µM: 30 to 60%

O=C(NCCc1ccccc1)c1cccc(Nc2ccc(-c3ccccc3)cn2)c1 [Compound 114] tested on human ANO6 (Homo sapiens) gave inhibition at 1 µM: ≥ 60%

O=C(NCC1CCCCC1)c1cccc(Nc2ccc(-c3ccccc3)nn2)c1 [Compound 31] tested on human ANO6 (Homo sapiens) gave inhibition at 1 µM: ≥ 60%

Cc1ccc(CNC(=O)c2cccc(Nc3cnc(-c4ccccc4)nc3)c2)o1 [Compound 11] tested on human ANO6 (Homo sapiens) gave inhibition at 1 µM: 30 to 60%

O=C(NCc1ccccc1)c1cccc(Nc2ccc(-c3ccccc3)nn2)c1 [Compound A75] tested on human ANO6 (Homo sapiens) gave inhibition at 1 µM: 30 to 60%

O=C(NCc1ccncc1)c1cccc(Nc2ccc(-c3ccccc3)nn2)c1 [Compound 18] tested on human ANO6 (Homo sapiens) gave inhibition at 1 µM: < 30%

Cc1ccc(CNC(=O)c2cccc(Nc3ncc(-c4cccc(C(F)(F)F)c4)cn3)c2)o1 [Compound 99] tested on human ANO6 (Homo sapiens) gave inhibition at 1 µM: 30 to 60%
